assay-overview: photoluminescence quantum yield (fraction); solvent given as SMILES
cond: in ClCCl
# note: exactly 0.4 is not below, so it is n; use y for photoluminescence quantum yield strictly under it

Q) State whether 0.4 exceeds photoluminescence quantum yield recorded for `CN(C)c1ccc(C#Cc2cc(C#Cc3ccc(N(C)C)cc3)c3ccc4c(C#Cc5ccc(C(F)(F)F)cc5)cc(C#Cc5ccc(N(C)C)cc5)c5ccc2c3c54)cc1` .
A) n

Q) State whether 0.4 exceeds photoluminescence quantum yield recorded for `CN(c1ccccc1)c1ccc(N(c2ccccc2)c2ccc3ccc4c(N(c5ccccc5)c5ccc(N(C)c6ccccc6)cc5)ccc5ccc2c3c54)cc1` .
A) y

Q) State whether 0.4 exceeds photoluminescence quantum yield recorded for `CCCn1c(=O)c(/C=C/c2nc3ccc(C)cc3n(CCC)c2=O)nc2ccc(C)cc21` .
A) y

Q) State whether 0.4 exceeds photoluminescence quantum yield recorded for `COc1c2ccccc2c(OC)c2c1c1cc(F)ccc1n2C` .
A) y

Q) State whether 0.4 exceeds photoluminescence quantum yield recorded for `CCn1c2ccc(-c3ccc(-c4cccs4)s3)cc2c2cc(-c3ccc(-c4cccs4)s3)ccc21` .
A) y

Q) State whether 0.4 exceeds photoluminescence quantum yield recorded for `C(=C\c1cc(-c2ccccc2)c(/C=C/c2ccc(N(c3ccccc3)c3ccccc3)cc2)cc1-c1ccccc1)/c1ccc(N(c2ccccc2)c2ccccc2)cc1` .
A) n

Q) State whether 0.4 exceeds photoluminescence quantum yield recorded for `F[B-]1(F)OC(c2ccccc2)=Cc2ccc3ccccc3[n+]21` .
A) n

Q) State whether 0.4 exceeds photoluminescence quantum yield recorded for `Cc1csc2[n+]1[B-](F)(F)n1c(c3cccc4cccc1c43)=N2` .
A) n

----------
assay-overview: photoluminescence quantum yield (fraction); solvent given as SMILES
cond: in C1COCCO1
Kindly supply the reported photoluminescence quantum yield values for the records listed here.

Q) Provide only the value of recorded photoluminescence quantum yield for `Cc1c(OCC(=O)O)cc2c3c([nH]c2c1C)C(=O)CCC3`
A) 0.009

Q) Provide only the value of recorded photoluminescence quantum yield for `COC(=O)c1ccc(/C=C2\C=C(c3ccc([N+](=O)[O-])cc3)OC2=O)cc1`
A) 0.002

Q) Provide only the value of recorded photoluminescence quantum yield for `CCCn1c(=O)c(/C=C/c2nc3ccc(C)cc3n(CCC)c2=O)nc2ccc(C)cc21`
A) 0.2

Q) Provide only the value of recorded photoluminescence quantum yield for `CCN(CC)c1ccc2cc(/C=C/C(=O)/C=C(O)/C=C/c3cc4ccc(N(CC)CC)cc4oc3=O)c(=O)oc2c1`
A) 0.66

Q) Provide only the value of recorded photoluminescence quantum yield for `CCCCN(CCCC)c1ccc(/C=C/c2ccc3nc(-c4ccccc4)c(/C=C/c4ccc(N(C)C)cc4)nc3c2)cc1`
A) 0.17

----------
assay-overview: photoluminescence quantum yield (fraction); solvent given as SMILES
cond: in C1CCCCC1
Record Met whenever photoluminescence quantum yield is at 0.1 or higher; record Not met when lower.

Q) Determine whether measured photoluminescence quantum yield meets or exceeds 0.1 for `Nc1ccc2c(c1)C(=O)c1ccccc1-2`
A) Not met

Q) Determine whether measured photoluminescence quantum yield meets or exceeds 0.1 for `COc1ccc(-c2ccc(-c3ccccc3)cc2)cc1`
A) Met

Q) Determine whether measured photoluminescence quantum yield meets or exceeds 0.1 for `CN(C)c1ccc(C(=O)Nc2ccc(Cl)cc2)cc1`
A) Not met

Q) Determine whether measured photoluminescence quantum yield meets or exceeds 0.1 for `CCC1=C(C)C(=O)n2c1cc1[nH]c(C(=O)OC(C)(C)C)c(C)c1c2=O`
A) Not met

Q) Determine whether measured photoluminescence quantum yield meets or exceeds 0.1 for `c1ccc2cc(-n3c4ccccc4c4ccccc43)ccc2c1`
A) Met

Q) Determine whether measured photoluminescence quantum yield meets or exceeds 0.1 for `CC(=O)c1ccc(NC(=O)c2ccc(N(C)C)cc2)cc1`
A) Not met

Q) Determine whether measured photoluminescence quantum yield meets or exceeds 0.1 for `CN(C)c1ccc2nc(-c3ccc(C=O)cc3)sc2c1`
A) Met

Q) Determine whether measured photoluminescence quantum yield meets or exceeds 0.1 for `N#Cc1cccc(N)c1`
A) Not met

Q) Determine whether measured photoluminescence quantum yield meets or exceeds 0.1 for `CN(C)C(=O)c1ccc(-c2nc3ccc(N(C)C)cc3s2)cc1`
A) Met

Q) Determine whether measured photoluminescence quantum yield meets or exceeds 0.1 for CCCCC(CC)CN1C(=O)c2cccc3c(C#Cc4ccc(N(c5ccccc5)c5ccccc5)cc4)ccc(c23)C1=O (stereo unspecified)
A) Met

Q) Determine whether measured photoluminescence quantum yield meets or exceeds 0.1 for `Cc1cc(C)c(B(c2c(C)cc(C)cc2C)c2cc3ccc4ccccc4c3c3c2ccc2ccccc23)c(C)c1`
A) Met

Q) Determine whether measured photoluminescence quantum yield meets or exceeds 0.1 for `CCCC1(CCC)c2cc(-c3ccc(C(C)(C)CC)cc3)ccc2-c2ccc(-c3ccc(C(C)(C)CC)cc3)cc21`
A) Met

Q) Determine whether measured photoluminescence quantum yield meets or exceeds 0.1 for `CCCCCCC(CCCCCC)n1c(=O)c2c3ccc4cccc5c6cccc7ccc(c2c1=O)c(c76)c3c45`
A) Met

Q) Determine whether measured photoluminescence quantum yield meets or exceeds 0.1 for `CCN(CC)c1ccc2c(c1)oc(=O)c1cc3c(-c4ccccc4)nn(C)c3nc12`
A) Met
